Entries and their measured cytochrome c release ratio follow.
# TEST: blockers of cytochrome c efflux from mitochondria – biochemical, purified mitochondria (AID 1603);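 note: mouse liver mitochondria challenged with calcium chloride; signal normalized to the plate average as 100%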
# APPLIED_CONDITIONS: stronger effect = lower value
MEASURED_PARAMETER: cytochrome c release ratio

NC(=O)c1ccccc1O ... 0.7
CC(C)(Sc1cc(C(C)(C)C)c(O)c(C(C)(C)C)c1)Sc1cc(C(C)(C)C)c(O)c(C(C)(C)C)c1 ... 0.46
O=C(Nc1ccc([N+](=O)[O-])cc1Cl)c1cc(Cl)ccc1O ... 0.91
CN(C)CCCN1c2ccccc2Sc2ccccc21 ... 1.27
Nc1ccc(C(=O)O)c(O)c1 ... 1.48
CCCCCCc1ccc(O)cc1O ... 0.54
Oc1ccc(Cl)cc1Cc1cc(Cl)ccc1O ... 0.36
